PBM binding z-score listing for selected sequences.
# Tested on: PPARg:RXRa IVT, anti-PPARg (NR concentration 270 nM, RXRa partner concentration 90 nM)
# EXPERIMENT: PBM binding z-score (relative to random genomic background probes); higher = stronger binding; sequences stand for … in GC…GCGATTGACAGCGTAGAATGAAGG

# BIOSEQUENCE, TEST_SYSTEM, PBM binding z-score
measured = [
    ("TTACCAAGGTGAAAGGTCGCTGATGCACGCCTTG", "PPARg:RXRa IVT, anti-PPARg (NR concentration 270 nM, RXRa partner concentration 90 nM)", 5.19),
    ("TCTTCTAGGTCAACGATGGTCAGCTAATCTGCTA", "PPARg:RXRa IVT, anti-PPARg (NR concentration 270 nM, RXRa partner concentration 90 nM)", 7.26),
    ("AGAATGAGGTTAAGATCAGGGTAACAGAATACAT", "PPARg:RXRa IVT, anti-PPARg (NR concentration 270 nM, RXRa partner concentration 90 nM)", 3.28),
    ("CCTATTAGTTGACCATAAGGGCAACGGAAGCTCG", "PPARg:RXRa IVT, anti-PPARg (NR concentration 270 nM, RXRa partner concentration 90 nM)", 0.449),
    ("CAAACTAGGTCACGAAGGGTCAAAGTCGAATGAC", "PPARg:RXRa IVT, anti-PPARg (NR concentration 270 nM, RXRa partner concentration 90 nM)", 9.09),
    ("AGAATGTGGTTATTAAGATCAGGGAATTGCGGTC", "PPARg:RXRa IVT, anti-PPARg (NR concentration 270 nM, RXRa partner concentration 90 nM)", 0.232),
    ("TCTTGTAGATCAAGCAGGTTAACAAAGCCTGAGT", "PPARg:RXRa IVT, anti-PPARg (NR concentration 270 nM, RXRa partner concentration 90 nM)", 0.741),
    ("CAAACTAGGTAACCGGAAGGTCAAAGTCCGCATG", "PPARg:RXRa IVT, anti-PPARg (NR concentration 270 nM, RXRa partner concentration 90 nM)", 6.36),
    ("GCTAGAAGGCCATTTGGGTCACTCAATGACGGGC", "PPARg:RXRa IVT, anti-PPARg (NR concentration 270 nM, RXRa partner concentration 90 nM)", 1.97),
    ("ATATGTAGGTTAAGGGTCGTTCAGGTTGGTTCGC", "PPARg:RXRa IVT, anti-PPARg (NR concentration 270 nM, RXRa partner concentration 90 nM)", 7.66),
    ("TCTTGTATATCAAGCAGGTTAAGAAAGCCTGAGT", "PPARg:RXRa IVT, anti-PPARg (NR concentration 270 nM, RXRa partner concentration 90 nM)", 0.503),
    ("TCGAGTAGGATACCAATGGGGCATTCAGCTTTCT", "PPARg:RXRa IVT, anti-PPARg (NR concentration 270 nM, RXRa partner concentration 90 nM)", -0.141),
    ("CAGCCTAGGTCGGGGCCAGTATAGGAGGAACGTT", "PPARg:RXRa IVT, anti-PPARg (NR concentration 270 nM, RXRa partner concentration 90 nM)", -0.678),
    ("CCTTACGGGTCACGAGGTTATAGCACGACGAGCG", "PPARg:RXRa IVT, anti-PPARg (NR concentration 270 nM, RXRa partner concentration 90 nM)", 5.69),
    ("TCTAGTTGGTCACGGAGGTCGCACACGACGGGTA", "PPARg:RXRa IVT, anti-PPARg (NR concentration 270 nM, RXRa partner concentration 90 nM)", 2.88),
]
